Listed next: entries and their corresponding IC50.
target-desc: human EHMT2 913-1193 (Homo sapiens, UniProt Q96KQ7)
Construct: recombinant purified human EHMT2 913-1193, Viva; purchased Viva
Sequence (Q96KQ7 913-1193): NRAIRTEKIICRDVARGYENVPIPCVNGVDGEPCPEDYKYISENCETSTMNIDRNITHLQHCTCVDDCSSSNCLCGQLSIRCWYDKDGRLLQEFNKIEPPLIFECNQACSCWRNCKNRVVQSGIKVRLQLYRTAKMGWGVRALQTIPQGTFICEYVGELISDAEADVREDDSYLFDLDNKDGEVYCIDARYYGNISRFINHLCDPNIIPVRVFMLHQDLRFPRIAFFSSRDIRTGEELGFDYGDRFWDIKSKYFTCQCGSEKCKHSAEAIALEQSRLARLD
experiment-summary: EHMT2 enzyme assay on histone peptide substrate (EHMT2 PEP)
Type: biochemical
setup-conditions: recombinant human EHMT2 913-1193, histone H3 1-15 peptide, balanced conditions; read-out: EHMT2 PEP (IC50 μM)

Consider the worked cases shown below.
CNc1cc(C)nc(Nc2ccc(OC)c(OCC3CN(C4CC4)C3)c2)n1 = 0.1 to 1 µM
CCN1CC[C@@H](COc2cc(Nc3nc(C)cc(NC)n3)cnc2OC)C1 = 0.1 to 1 µM
CCN1CC(COc2cc(Nc3cc(NC)cc(C)n3)cnc2OC)C1 = 0.1 to 1 µM
CNc1cc(C)nc(Nc2ccc(OC)c(OCC3CN(C4CCC4)C3)c2)n1 = 0.1 to 1 µM
CNc1nc(C2CCN(C(C)C)CC2)c2cc(OC)c(OC[C@@H]3CCN(C4CC4)C3)cc2n1 = < 0.1 µM

input: Entry under review: `CNc1cc(C)nc(Nc2ccc(OC)c(OC[C@H]3C[C@@H](N(C)C)C3)c2)n1` . Reported IC50?
output: 1 to 10 µM

input: Entry under review: CCN1CC(C(C#N)Oc2cc(Nc3nc(C)cc(NC)n3)ccc2OC)C1 (stereo not drawn) . Reported IC50?
output: 1 to 10 µM

input: Entry under review: CNc1cc(C)nc(Nc2ccc(OC)c(OCCCN3CC4CC4C3)c2)n1 (stereo not drawn) . Reported IC50?
output: < 0.1 µM

input: Entry under review: `COc1ccc(Nc2nc(C)cc(NC(C)C)n2)cc1OCCCN1CCCC1` . Reported IC50?
output: < 0.1 µM

---

Listed next: entries and their corresponding IC50.
target-desc: EHMT2 (Homo sapiens, UniProt Q96KQ7)
Construct: host or cells: MDA-MB-231
Sequence (Q96KQ7 whole entry): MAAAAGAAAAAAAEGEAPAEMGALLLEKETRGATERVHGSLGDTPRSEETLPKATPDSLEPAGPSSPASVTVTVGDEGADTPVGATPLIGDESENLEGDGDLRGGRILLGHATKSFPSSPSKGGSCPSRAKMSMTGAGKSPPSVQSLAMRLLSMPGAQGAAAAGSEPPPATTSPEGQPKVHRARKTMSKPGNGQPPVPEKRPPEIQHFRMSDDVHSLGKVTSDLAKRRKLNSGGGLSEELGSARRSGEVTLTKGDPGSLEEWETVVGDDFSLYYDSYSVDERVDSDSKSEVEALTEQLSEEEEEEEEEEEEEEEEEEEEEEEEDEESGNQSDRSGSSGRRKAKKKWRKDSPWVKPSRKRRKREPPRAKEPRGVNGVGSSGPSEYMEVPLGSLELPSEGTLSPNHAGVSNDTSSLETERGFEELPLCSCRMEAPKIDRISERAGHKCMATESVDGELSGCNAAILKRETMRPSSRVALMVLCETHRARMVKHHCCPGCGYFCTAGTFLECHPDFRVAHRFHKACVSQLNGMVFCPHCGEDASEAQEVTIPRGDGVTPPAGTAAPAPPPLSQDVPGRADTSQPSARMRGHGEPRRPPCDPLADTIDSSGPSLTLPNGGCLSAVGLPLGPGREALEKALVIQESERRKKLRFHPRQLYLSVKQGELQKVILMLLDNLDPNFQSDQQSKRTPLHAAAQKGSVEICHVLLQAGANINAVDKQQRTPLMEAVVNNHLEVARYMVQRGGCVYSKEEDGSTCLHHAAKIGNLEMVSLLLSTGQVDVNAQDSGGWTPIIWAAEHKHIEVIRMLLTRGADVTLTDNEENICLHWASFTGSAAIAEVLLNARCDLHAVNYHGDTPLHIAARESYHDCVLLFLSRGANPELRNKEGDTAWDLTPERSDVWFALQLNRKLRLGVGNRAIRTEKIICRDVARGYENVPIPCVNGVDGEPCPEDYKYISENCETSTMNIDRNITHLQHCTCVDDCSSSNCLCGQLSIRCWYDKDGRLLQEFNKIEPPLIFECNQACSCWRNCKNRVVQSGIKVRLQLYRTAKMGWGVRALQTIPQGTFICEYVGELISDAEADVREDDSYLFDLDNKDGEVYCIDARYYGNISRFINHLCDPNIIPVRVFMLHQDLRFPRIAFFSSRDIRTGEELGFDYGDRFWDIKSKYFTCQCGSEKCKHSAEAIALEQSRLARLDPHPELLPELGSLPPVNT
experiment-summary: MDA-MB-231 H3K9me2 in-cell Western assay (EHMT2 ICW)
Type: cell-based
setup-conditions: Table II; MDA-MB-231 H3K9me2 in-cell Western; read-out: EHMT2 ICW (IC50 μM)

CNc1cnnc(Nc2ccc(OC)c(OCCCN3CCCC3)c2)c1 = > 10 µM
COc1ccc(Nc2nccc(N3CCC(C(C)(C)O)CC3)n2)cc1OCCCN1CCCC1 = > 10 µM
COc1ccc(Nc2ncc(C)c(NCC3CCN(C(C)=O)CC3)n2)cc1OCCCN1CCCC1 = 1 to 10 µM

input: Entry under review: `COc1ccc(Nc2nccc(NCC3(O)CCOCC3)n2)cc1OCCCN1CCCC1` . Reported IC50?
output: 1 to 10 µM

input: Entry under review: `COc1ccc(Nc2nccc(N(C)C3CCOCC3)n2)cc1OCCCN1CCCC1` . Reported IC50?
output: > 10 µM

input: Entry under review: `COc1ccc(Nc2nccc(NCCC3CCOCC3)n2)cc1OCCCN1CCCC1` . Reported IC50?
output: 0.1 to 1 µM

input: Entry under review: `COc1ccc(Nc2nccc(NCC3CCN(S(C)(=O)=O)CC3)n2)cc1OCCCN1CCCC1` . Reported IC50?
output: 1 to 10 µM

---

target-desc: EHMT2 (Homo sapiens)
Construct: host or cells: MDA-MB-231
experiment-summary: MDA-MB-231 H3K9me2 in-cell Western assay (EHMT2 ICW)
Assay type: cell-based
setup-conditions: Table VII; read-out: EHMT2 ICW IC50
Listed next: entries and their corresponding IC50.

CNc1ccnc(Nc2ccc(OC)c(OC[C@@H]3CCN(C4CC4)C3)c2)n1 = < 0.1 µM
CNCCNCc1cc(Nc2nccc(NC)n2)ccc1OC = 1 to 10 µM
CNc1ccnc(Nc2cnc(OC)c(OC[C@@H]3CCN(C4CCC4)C3)c2)n1 = 0.1 to 1 µM

input: # value lookup — system EHMT2 (Homo sapiens), readout IC50, item `CNC[C@@H](COc1cc(Nc2nccc(NC)n2)ccc1OC)OC`
output: > 10 µM

input: # value lookup — system EHMT2 (Homo sapiens), readout IC50, item `CCN(C)C[C@@H](O)COc1cc(Nc2nc(C)cc(NC)n2)ccc1OC`
output: 1 to 10 µM

input: # value lookup — system EHMT2 (Homo sapiens), readout IC50, item `CNCCCOc1cc(Nc2nccc(NC)n2)ccc1OC`
output: 1 to 10 µM
